Reported pIC50 values are given for each entry in this list.
Target: Lck (Homo sapiens)
Construct: Kinases are expressed as either kinase domains or full length constructs; made in house
Sequence (P06239 whole entry, species assumed, the tested form may be a part): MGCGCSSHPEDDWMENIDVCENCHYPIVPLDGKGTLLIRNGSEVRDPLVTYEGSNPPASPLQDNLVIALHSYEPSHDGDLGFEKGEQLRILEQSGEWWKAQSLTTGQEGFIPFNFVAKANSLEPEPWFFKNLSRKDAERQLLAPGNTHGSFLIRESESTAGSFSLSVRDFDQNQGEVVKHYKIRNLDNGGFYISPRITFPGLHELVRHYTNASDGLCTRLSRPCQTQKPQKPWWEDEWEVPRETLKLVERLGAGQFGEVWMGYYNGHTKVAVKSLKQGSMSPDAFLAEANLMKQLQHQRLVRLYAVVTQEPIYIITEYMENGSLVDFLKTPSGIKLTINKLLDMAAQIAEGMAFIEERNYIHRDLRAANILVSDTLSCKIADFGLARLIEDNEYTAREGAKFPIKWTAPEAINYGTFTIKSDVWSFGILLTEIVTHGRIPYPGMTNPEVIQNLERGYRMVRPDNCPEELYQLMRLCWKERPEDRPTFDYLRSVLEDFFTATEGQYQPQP
Assay: Kinase inhibition assay (33P transfer), Lck
Assay type: biochemical
Conditions: Table 3, class symbols; read-out: Lck-1
Excerpt: The inhibitor compounds described herein are screened in the following manner. […] Kinases are expressed as either kinase domains or full length constructs fused to glutathione S-transferase (GST) or polyHistidine tagged fusion proteins in either E. colior Baculovirus-High Five expression systems. […]
pIC50: −log10 of the molar value.

For orientation, consider the following solved cases.
smi | tested-system | pIC50
NC(=O)Cc1cccc(Nc2ncnc(Nc3cccc(Br)c3)n2)c1 | Lck (Homo sapiens) | 5.06 to 5.22
CC(C)Nc1ncccc1-c1ncnc(Nc2cccc(Cn3ccnn3)c2)n1 | Lck (Homo sapiens) | 5.21 to 5.99
COC(=O)c1cccc(Nc2ncnc(-n3c(NCc4ccc(OC)cc4)nc4ccccc43)n2)c1 | Lck (Homo sapiens) | < 5.03

Here is the next item to consider.
**Query** Indicate its recorded pIC50; the compound in question is `COc1ccc(CCNc2ncnc(Nc3cc(-c4ccco4)[nH]n3)n2)cc1OC`
**Result** 4.96 to 5.07
